test system: Klebsiella pneumoniae; experiment: microbe, parasite or virus in culture; settings: T6474
MIC strictly less than 0.5 µg/mL = True. Otherwise False.

Reference set (5 entries):
SMILES_STR	LABEL
C[C@@](CCN1Cc2cc(C#CC#CC3(N)CC3)cn2C1=O)(C(=O)NO)S(C)(=O)=O	True
C[C@@](CCN1Cc2cc(C#CC#CC3CNC3)cn2C1=O)(C(=O)NO)S(C)(=O)=O	False
CN1CC(C#CC#Cc2cc3n(c2)C(=O)N(CC[C@](C)(C(N)=O)S(C)(=O)=O)C3)C1	False
C[C@@](CCN1Cc2cc(C#CC#C[C@H]3C[C@@H]3CO)cn2C1=O)(C(=O)NO)S(C)(=O)=O	True
C[C@@](CCN1Cc2cc(C#CC#CC3CN(CCF)C3)cn2C1=O)(C(=O)NO)S(C)(=O)=O	True

Next item in the queue.
Challenge: Please state whether MIC is below 0.5 µg/mL for `CC(C)N1CC(C#CC#Cc2cc3n(c2)C(=O)N(CC[C@](C)(C(=O)NO)S(C)(=O)=O)C3)C1`
Response given: True

----------
Below is a list of entries, each paired with its recorded microsomal CLint at 1 µM value.
assay: in vitro; conditions: rat, liver microsomes
Numbers only here, please. The scale is µL/min/mg.

SMILES_STR	ENDPOINT_UNIT	RECORDED_NUMBER
C[C@@](CCN1Cc2cc(C#CC#CC3(N)CC3)cn2C1=O)(C(=O)NO)S(C)(=O)=O	µL/min/mg	14

Entry `C[C@@](CCN1Cc2cc(C#CC#C[C@@H]3C[C@@]3(F)CO)cn2C1=O)(C(=O)NO)S(C)(=O)=O` ; microsomal CLint at 1 µM = 12

----------
test system: Escherichia coli; experiment: microbe, parasite or virus in culture; settings: ATCC 25922
PROPERTY_LABEL: MIC (mg/L)
// return numeric value only (unit: mg/L, not printed)

Solved cases (8 shown):
SMILES_STR	ENDPOINT_UNIT	RECORDED_NUMBER
C[C@@](CCN1Cc2cc(C#CC#CC3CN(C4COC4)C3)cn2C1=O)(C(=O)NO)S(C)(=O)=O	mg/L	0.25
CN1CCC(F)(C#CC#Cc2cc3n(c2)C(=O)N(CC[C@](C)(C(=O)NO)S(C)(=O)=O)C3)CC1	mg/L	0.5
CN1CCC(C#CC#Cc2cc3n(c2)C(=O)N(CC[C@](C)(C(=O)NO)S(C)(=O)=O)C3)CC1	mg/L	4
C[C@@](CCN1Cc2cc(C#CC#CC3CN(CCO)C3)cn2C1=O)(C(=O)NO)S(C)(=O)=O	mg/L	0.5
CN(C)C1(C#CC#Cc2cc3n(c2)C(=O)N(CC[C@](C)(C(=O)NO)S(C)(=O)=O)C3)CC1	mg/L	0.25
CC(C)N1CC(C#CC#Cc2cc3n(c2)C(=O)N(CC[C@](C)(C(=O)NO)S(C)(=O)=O)C3)C1	mg/L	0.25
C[C@@](CCN1Cc2cc(C#CC#C[C@H]3C[C@@H]3CO)cn2C1=O)(C(=O)NO)S(C)(=O)=O	mg/L	0.12
C[C@@](CCN1Cc2cc(C#CC#CC3(CO)CC3)cn2C1=O)(C(=O)NO)S(C)(=O)=O	mg/L	0.25

response.value for `C[C@@](CCN1Cc2cc(C#CC#CCN3CCC(O)CC3)cn2C1=O)(C(=O)NO)S(C)(=O)=O` (field: MIC) = 1

Sample `CN1CC(C#CC#Cc2cc3n(c2)C(=O)N(CC[C@](C)(C(=O)NO)S(C)(=O)=O)C3)C1` ; MIC observed: 0.5

`C[C@@](CCN1Cc2cc(C#CC#CC3CN(CCF)C3)cn2C1=O)(C(=O)NO)S(C)(=O)=O` has a reported MIC of 0.06

----------
test: physchem; settings: buffer, pH 4
PROPERTY_LABEL: solubility at 24 h

Use the examples below as a reference point.
SMILES_STR	solubility at 24 h
CN1CC(F)(C#CC#Cc2cc3n(c2)C(=O)N(CC[C@](C)(C(=O)NO)S(C)(=O)=O)C3)C1	> 0.76 mg/mL
C[C@@](CCN1Cc2cc(C#CC#CC3CCN(C4COC4)CC3)cn2C1=O)(C(=O)NO)S(C)(=O)=O	> 0.85 mg/mL

Now turn to the next compound.
response.value for `CN(C)C1(C#CC#Cc2cc3n(c2)C(=O)N(CC[C@](C)(C(=O)NO)S(C)(=O)=O)C3)CC1` (field: solubility at 24 h) = 0.412 mg/mL

----------
experiment: physchem; settings: buffer, pH 7
The following compounds are listed with their measured solubility at 24 h values.
Reply with just the number (in µg/mL).

SMILES_STR	RECORDED_NUMBER
CC(C)N1CC(C#CC#Cc2cc3n(c2)C(=O)N(CC[C@](C)(C(=O)NO)S(C)(=O)=O)C3)C1	398
C[C@@](CCN1Cc2cc(C#CC#CC3(F)CNC3)cn2C1=O)(C(=O)NO)S(C)(=O)=O	175
C[C@@](CCN1Cc2cc(C#CC#CC3CCN(C4COC4)CC3)cn2C1=O)(C(=O)NO)S(C)(=O)=O	329
CNC1(C#CC#Cc2cc3n(c2)C(=O)N(CC[C@](C)(C(=O)NO)S(C)(=O)=O)C3)CC1	182
C[C@@](CCN1Cc2cc(C#CC#CC3CN(CCF)C3)cn2C1=O)(C(=O)NO)S(C)(=O)=O	247

// field: solubility at 24 h; key: `CN(C)C1(C#CC#Cc2cc3n(c2)C(=O)N(CC[C@](C)(C(=O)NO)S(C)(=O)=O)C3)CC1` ; value = 15

solubility at 24 h recorded for this compound, `CN1CC(F)(C#CC#Cc2cc3n(c2)C(=O)N(CC[C@](C)(C(=O)NO)S(C)(=O)=O)C3)C1` , is 219

Per the records, this compound ( `C[C@]1(CO)C[C@@H]1C#CC#Cc1cc2n(c1)C(=O)N(CC[C@](C)(C(=O)NO)S(C)(=O)=O)C2` ) has solubility at 24 h equal to 401

// field: solubility at 24 h; key: `C[C@@](CCN1Cc2cc(C#CC#C[C@@H]3C[C@@]3(F)CO)cn2C1=O)(C(=O)NO)S(C)(=O)=O` ; value = 248

solubility at 24 h in this record for `C[C@@](CCN1Cc2cc(C#CC#C[C@@H]3C[C@H]3CO)cn2C1=O)(C(=O)NO)S(C)(=O)=O` : 602

----------
Reported solubility at 24 h values follow for various compounds
test: physchem; details: buffer, pH 9
Number only, in µg/mL; omit the unit.

SMILES_STR	solubility at 24 h (µg/mL)
C[C@@](CCN1Cc2cc(C#CC#CC3CN(C4COC4)C3)cn2C1=O)(C(=O)NO)S(C)(=O)=O	681

Form: compound = `C[C@@](CCN1Cc2cc(C#CC#CC3(CO)CC3)cn2C1=O)(C(=O)NO)S(C)(=O)=O` ; solubility at 24 h = 553

solubility at 24 h recorded for this compound, `C[C@]1(CO)C[C@@H]1C#CC#Cc1cc2n(c1)C(=O)N(CC[C@](C)(C(=O)NO)S(C)(=O)=O)C2` , is 506

// field: solubility at 24 h; key: `CN1CCC(C#CC#Cc2cc3n(c2)C(=O)N(CC[C@](C)(C(=O)NO)S(C)(=O)=O)C3)CC1` ; value = 574

Data point: `CN(C)C1(C#CC#Cc2cc3n(c2)C(=O)N(CC[C@](C)(C(=O)NO)S(C)(=O)=O)C3)CC1` ; solubility at 24 h = 95

Field solubility at 24 h (entry `CN1CC(C#CC#Cc2cc3n(c2)C(=O)N(CC[C@](C)(C(N)=O)S(C)(=O)=O)C3)C1` ) reads 92

solubility at 24 h reported for this compound `C[C@@](CCN1Cc2cc(C#CC#C[C@@H]3C[C@H]3CO)cn2C1=O)(C(=O)NO)S(C)(=O)=O` : 552

# solubility at 24 h (compound: `CN1CCC(F)(C#CC#Cc2cc3n(c2)C(=O)N(CC[C@](C)(C(=O)NO)S(C)(=O)=O)C3)CC1` ) is 203

// recorded solubility at 24 h for `C[C@@](CCN1Cc2cc(C#CC#CC3(F)CNC3)cn2C1=O)(C(=O)NO)S(C)(=O)=O` : 279

Reported solubility at 24 h for `C[C@@](CCN1Cc2cc(C#CC#C[C@H]3C[C@@H]3CO)cn2C1=O)(C(=O)NO)S(C)(=O)=O` was 628

The reported value for `CNC1(C#CC#Cc2cc3n(c2)C(=O)N(CC[C@](C)(C(=O)NO)S(C)(=O)=O)C3)CC1` in terms of solubility at 24 h is 486

For record `CC(C)N1CC(C#CC#Cc2cc3n(c2)C(=O)N(CC[C@](C)(C(=O)NO)S(C)(=O)=O)C3)C1` the listed solubility at 24 h is 420
